# ASSAY_SYSTEM: Free fatty acid receptor 1 (Homo sapiens)
# Sequence (O14842 whole entry): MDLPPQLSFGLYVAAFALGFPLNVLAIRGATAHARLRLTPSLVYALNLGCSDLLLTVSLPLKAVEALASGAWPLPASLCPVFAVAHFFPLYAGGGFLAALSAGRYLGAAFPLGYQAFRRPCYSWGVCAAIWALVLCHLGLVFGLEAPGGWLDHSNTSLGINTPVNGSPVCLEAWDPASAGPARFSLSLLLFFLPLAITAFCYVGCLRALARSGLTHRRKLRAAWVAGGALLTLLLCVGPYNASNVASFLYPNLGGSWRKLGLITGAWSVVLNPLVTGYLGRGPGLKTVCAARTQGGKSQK
# EXPERIMENTAL_PROTOCOL: Positive allosteric modulation of human GPR40 expressed in HEK293 cells assessed as IP1 accumulation measured after 60 mins in presence of 100% human serum by HTRF assay relative to DMSO control
# Type: functional, cell-based
// map Activity onto a label; ranges LOW = under 200%, MEDIUM = from 200% up to 300%, HIGH = 300% and over

Look over these answered cases.
# MOLECULE, ASSAY_SYSTEM, ANSWER_LABEL
rows = [
    ("COc1ccc(F)c(-c2ccc(C3CCc4ccc([C@@H](CC(=O)O)C5CC5)cc4O3)cc2C(OC)C2CC2)c1 (stereo in doubt; 18)", "Free fatty acid receptor 1 (Homo sapiens)", "MEDIUM"),
    ("COCc1cc(C2CCc3ccc([C@@H](CC(=O)O)C4CC4)cc3O2)ccc1-c1cc(OC)ccc1F (stereo in doubt; 16)", "Free fatty acid receptor 1 (Homo sapiens)", "MEDIUM"),
    ("COc1ccc(F)c(-c2ccc(C3CCc4ccc([C@@H](CC(=O)O)C5CC5)cc4O3)cc2C(OC)C2CC2)c1 (stereo in doubt; 19)", "Free fatty acid receptor 1 (Homo sapiens)", "HIGH"),
]

query: Class label required: COc1ccc(F)c(-c2ccc(C3CCc4ccc([C@H](C5CC5)[C@H](C)C(=O)O)cc4O3)nc2)c1 (stereo in doubt; 30)
result: HIGH

query: Which bin should I file COc1ccc(F)c(-c2ccc(C3CCc4ccc([C@@H](CC(=O)O)C5CC5)cc4O3)cc2C#N)c1 (mixture of isomers) under?
result: LOW

query: Please classify: COc1ccc(F)c(-c2ccc(C3CCc4ccc([C@@H](CC(=O)O)C5CC5)cc4O3)cc2)c1 (single isomer, unassigned; isomer-2)
result: LOW

query: Form field 'band' for COc1ccc(F)c(-c2ccc(C3CCc4ccc([C@H](C5CC5)[C@@H](C)C(=O)O)cc4O3)cc2)c1 (stereo in doubt; 26)
result: MEDIUM

query: Consider COc1ccc(F)c(-c2ccc(C3CCc4ccc([C@@H](CC(=O)O)C5CC5)cc4O3)nc2)c1 (mixture of isomers) . To which Activity class does it belong?
result: MEDIUM

query: Band for COc1ccc(F)c(-c2ccc(C3CCc4ccc([C@H](C5CC5)[C@@H](C)C(=O)O)cc4O3)nc2)c1 (stereo in doubt; 32) ?
result: LOW
